Please provide measured logP for the entries that follow.

The following compounds have reported results that may help.
• CCNCc1ccccc1 = 1.82
• CC(N)CCc1ccccc1 (centres undefined) = 2.12
• CCCCNCc1ccccc1 = 2.59

Alright, here's another compound for you.
Q: Given the compound CC(C)NCc1ccccc1 , what is its reported logP?
Result: 1.83

----------
PROCEDURE SUMMARY: method code SF-AS, from DOI: 10.1021/jm9800301, PMID: 9748357
CONDITION SUMMARY: pH 7.4
QUANTITY KIND: logD
One number for each entry.

• O=C(NCc1ccc(F)cc1)C(=O)c1c[nH]c2ccccc12 = 2.88

From here, focus on the item given below.
Q: So what's the measured logD for this one? COc1ccc(CNC(=O)C(=O)c2c[nH]c3ccc([N+](=O)[O-])cc23)cc1
Result: 2.17

Values compiled from the SangsterLogP compilation.
